Origin of the recorded values: PubChem BioAssay

# Assay info: reducers of polyQ inclusions in PC12 cells, cell-based, NGF-treated PC12, GFPQ80 (AID 1614);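 also: lower means fewer inclusions and 0 means no inclusions at all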
# Condition: PC12 NGF-treated GFP-polyQ80 inclusion reduction
Property measured: inclusion score
Answers are plain numbers.

Take a look at these entries with their results.
Compound: CC1(C)C2CC[C@]3(C)C(C(=O)C=C4[C@H]5C[C@@](C)(C(=O)O)CC[C@]5(C)CC[C@]43C)[C@@]2(C)CC[C@@H]1O (stereo not given in full)
inclusion score: 2
--
Compound: CC1(C)O[C@@H]2CC3C4C[C@H](F)C5=CC(=O)CC[C@]5(C)C4[C@@H](O)C[C@]3(C)[C@]2(C(=O)CO)O1 (stereo not given in full)
inclusion score: 2.5
--
Compound: CC(=O)[C@@]1(O)CCC2C3C[C@H](C)C4=CC(=O)C=CC4(C)[C@@]3(F)[C@@H](O)C[C@@]21C (stereo not given in full)
inclusion score: 3

Quick request: inclusion score for each listed item, please.
1. CC(COc1ccccc1)NC(C)[C@H](O)c1ccc(O)cc1 (stereo not given in full)
2. O=C(O)CCCCC1SCC2NC(=O)NC21 (stereo not given)
3. CN[C@@H]1C(O)[C@@H](O[C@@H]2[C@@H](O)[C@H](O[C@H]3OC(CN)=CC[C@H]3N)[C@@H](N)C[C@H]2N)OC[C@]1(C)O (stereo not given in full)
4. COc1ccc(-c2cc(=O)c3c(O)cc(O[C@@H]4O[C@H](CO[C@H]5O[C@H](C)[C@@H](O)[C@H](O)[C@@H]5O)[C@@H](O)[C@H](O)[C@H]4O)cc3o2)cc1O
5. CC(C)[N+]1(C)C2CC[C@@H]1CC(OC(=O)C(CO)c1ccccc1)C2 (stereo not given in full)
6. CC(C)Oc1ccc2c(=O)cc(-c3ccccc3)oc2c1
7. CCOC(=O)OC(C)OC(=O)C1N2C(=O)C(NC(=O)[C@H](N)c3ccccc3)C2SC1(C)C (stereo not given in full)
8. NC[C@H]1O[C@H](O[C@H]2C(O[C@@H]3O[C@H](CO)[C@@H](O)[C@H]3O)[C@@H](O)[C@H](N)C[C@@H]2N)[C@H](N)[C@@H](O)[C@@H]1O (stereo not given in full)

A)
2
2
2
2
2
2
2
2
